Target: Delta-type opioid receptor (Homo sapiens)
Sequence (P41143 whole entry): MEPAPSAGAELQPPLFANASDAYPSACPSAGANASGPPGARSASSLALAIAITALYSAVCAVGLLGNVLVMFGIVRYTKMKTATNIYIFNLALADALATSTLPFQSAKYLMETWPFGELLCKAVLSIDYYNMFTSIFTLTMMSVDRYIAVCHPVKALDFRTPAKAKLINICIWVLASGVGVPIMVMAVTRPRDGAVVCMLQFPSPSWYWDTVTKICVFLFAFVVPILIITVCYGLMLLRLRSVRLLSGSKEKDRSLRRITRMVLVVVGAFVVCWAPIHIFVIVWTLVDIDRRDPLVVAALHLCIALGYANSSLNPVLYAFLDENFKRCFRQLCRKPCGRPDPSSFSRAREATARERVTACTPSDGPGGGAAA
Details: HEK293, at 100 µM
The source made the active and inactive calls. The rule behind the calls is not given here. Residues, ends and D or L forms follow the SMILES beside them.
Outcome codes: 1 = active, 0 = inactive

# Molecule, Target or system, Answer label
measured = [
    ("Cc1cc(C)c(C[C@H](NC(=O)[C@H](Cc2c(C)cc(C)cc2C)NC(=O)[C@@H]2CCCN2C(=O)[C@@H](N)Cc2c(C)cc(O)cc2C)C(N)=O)c(C)c1", "Delta-type opioid receptor (Homo sapiens)", 1),
    ("Cc1cc(C)c(C[C@H](NC(=O)[C@@H]2CCCN2C(=O)[C@@H](N)Cc2c(C)cc(O)cc2C)C(N)=O)c(C)c1", "Delta-type opioid receptor (Homo sapiens)", 0),
    ("Cc1cc(O)cc(C)c1C[C@H](N)C(=O)N1CCC[C@H]1C(=O)N[C@@H](Cc1ccccc1)C(=O)N[C@@H](Cc1c[nH]c2ccccc12)C(N)=O (HELM PEPTIDE1{[Cc1cc(O)cc(C)c1C[C@H](N)C(=O)[*:2]].P.F.W.[am]}$$$$V2.0)", "Delta-type opioid receptor (Homo sapiens)", 0),
    ("Cc1cccc(C)c1C[C@H](NC(=O)[C@H](Cc1ccccc1)NC(=O)[C@@H]1CCCN1C(=O)[C@@H](N)Cc1c(C)cc(O)cc1C)C(N)=O", "Delta-type opioid receptor (Homo sapiens)", 0),
    ("Cc1cc(O)cc(C)c1C[C@H](N)C(=O)N1CCC[C@H]1C(=O)N[C@@H](Cc1c[nH]c2ccccc12)C(N)=O (HELM PEPTIDE1{[Cc1cc(O)cc(C)c1C[C@H](N)C(=O)[*:2]].P.W.[am]}$$$$V2.0)", "Delta-type opioid receptor (Homo sapiens)", 0),
]

src = ChEMBL document CHEMBL3232856
